- testedOn: recombinant HPK1 protein (Homo sapiens (Human), UniProt Q92918)
- Sequence (Q92918 whole entry): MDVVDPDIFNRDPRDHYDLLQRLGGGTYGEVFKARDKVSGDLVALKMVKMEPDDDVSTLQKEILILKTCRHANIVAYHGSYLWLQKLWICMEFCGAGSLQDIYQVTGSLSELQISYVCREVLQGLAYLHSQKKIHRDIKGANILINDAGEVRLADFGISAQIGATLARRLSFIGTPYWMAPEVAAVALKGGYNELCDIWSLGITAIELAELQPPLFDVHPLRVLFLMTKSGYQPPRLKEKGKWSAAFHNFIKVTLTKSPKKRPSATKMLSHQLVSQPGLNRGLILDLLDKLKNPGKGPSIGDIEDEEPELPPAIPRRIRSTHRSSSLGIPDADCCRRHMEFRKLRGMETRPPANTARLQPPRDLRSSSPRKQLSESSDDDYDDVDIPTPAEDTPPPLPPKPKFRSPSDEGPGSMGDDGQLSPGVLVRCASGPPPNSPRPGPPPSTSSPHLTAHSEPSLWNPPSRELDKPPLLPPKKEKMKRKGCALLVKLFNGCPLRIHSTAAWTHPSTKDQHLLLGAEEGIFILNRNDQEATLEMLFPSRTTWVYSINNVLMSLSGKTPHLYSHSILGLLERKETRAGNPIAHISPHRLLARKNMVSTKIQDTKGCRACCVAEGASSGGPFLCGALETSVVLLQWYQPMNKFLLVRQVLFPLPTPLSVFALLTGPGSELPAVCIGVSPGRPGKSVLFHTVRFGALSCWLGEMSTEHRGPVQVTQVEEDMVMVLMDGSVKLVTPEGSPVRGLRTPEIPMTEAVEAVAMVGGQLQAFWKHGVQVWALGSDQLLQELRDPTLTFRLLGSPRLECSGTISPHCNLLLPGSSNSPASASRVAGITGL
- assayOverview: Primary HPK1 enzymatic inhibition (ADP-Glo luminescence)
- settings: recombinant HPK1, MBP substrate, 1 hour at room temperature
recordedEndpoint: Ki

Solved entries (count: 5):
> print(dat)
                             compoundsmiles    measvalue
1  COc1ccc2ncc3c(-c4ccc(OCCN(C)C)c(OC)c4)nn(-c4ccc(C)c(C)c4)c3c2c1  10 to 20 nM
2  COc1ccc2ncc3c(-c4cccc(N5CCN(C)CC5)c4)nn(-c4ccc(C)c(C)c4)c3c2c1  10 to 20 nM
3  Cc1ccc(-n2nc(-c3ccc(N4CCN(C)CC4)cc3)c3cnc4ccccc4c32)cc1C      ≥ 50 nM
4  COc1ccc2ncc3c(-c4ccc(OCCN5CCOCC5)c(OC)c4)nn(-c4ccc(C)c(C)c4)c3c2c1  20 to 50 nM
5  COc1ccc2ncc3c(-c4ccc(N5CCN(C)CC5)cc4)nn(-c4ccc(C)c(C)c4)c3c2c1  10 to 20 nM

Then this compound:
// lookup Ki | system=recombinant HPK1 protein (Homo sapiens (Human), UniProt Q92918) | key= COc1ccc2ncc3c(-c4ccc(OC)c(OC)c4)nn(-c4ccc5c(c4)CCNC5)c3c2c1 < 10 nM
